Tested on: K562
PROTOCOL DETAILS: relative cell viability (ATPlite) vs untreated control (fraction); higher = less toxic
ASSAY CONTEXT: 1 µM; 72 h
Classify: YES when relative cell viability is strictly less than 0.9; NO when relative cell viability is not.

N#Cc1c(NC(=O)c2cccc3ccccc23)sc2c1CCCC2: YES

Query block: Just wondering, is relative cell viability of CCCOc1ccc(/C=C2/SC(=O)NC2=O)cc1 below 0.9?
Result block: NO

Query block: Just wondering, is relative cell viability of Cc1cncc2cccc(S(=O)(=O)N3CCCN(C(=O)CN)C[C@@H]3C)c12 below 0.9?
Result block: YES

Query block: Just wondering, is relative cell viability of Cc1cc(C=C2C(=O)C=CC2=O)cc(C)c1O below 0.9?
Result block: YES

Query block: Just wondering, is relative cell viability of N#CCCc1ccc2c(c1)-c1[nH]c3ccc([N+](=O)[O-])cc3c1CC(=O)N2 below 0.9?
Result block: YES

---

Test system: IMR-90
PROTOCOL DETAILS: relative cell viability (ATPlite) vs untreated control (fraction); higher = less toxic
ASSAY CONTEXT: 1 µM; 72 h
Please respond with reported relative cell viability for every item in the list.
Answers are plain numbers.

Some solved entries appear below for comparison.
Cn1nc2c3c(cccc31)C(=O)c1ccccc1-2 [JNK Inhibitor, Negative Control]: 1.02
CCC(=O)Nc1ccc2ncnc(Nc3cccc(Br)c3)c2c1: 0.982

Switching to the query record.
Query block: May I ask what relative cell viability has been recorded for CC(C)(C)c1nc2c3cc[nH]c(=O)c3c3cc(F)ccc3c2[nH]1 [JAK Inhibitor I] ?
Result block: 1.01

---

Please respond with reported relative cell viability for every item in the list.
System: IMR-90
PROTOCOL DETAILS: relative cell viability (ATPlite) vs untreated control (fraction); higher = less toxic
ASSAY CONTEXT: 1 µM; 72 h
Counter-ions that a name gives are not always drawn.
Give bare numbers.

Some solved entries appear below for comparison.
Cn1c(O)c(-c2[nH]c3ccccc3c2N=O)c2ccc(Br)cc21 [GSK-3 Inhibitor IX, Control, MeBIO]: 0.976
O=c1cc(N2CCNCC2)oc2c(-c3ccccc3)cccc12: 0.987
O=C1NCCc2[nH]c(-c3ccnc(-c4cnc5ccccc5c4)c3)cc21 [MK-2 Inhibitor III]: 0.884
O=C1C(=Cc2ccc(O)cc2)C2=Nc3ccccc3C2=C1C1=C2C(=Nc3ccccc32)C(=Cc2ccc(O)cc2)C1=O [Scytonemin, Lyngbya sp.]: 0.834

Go through the items and report each one's relative cell viability.
1. O=C(Nc1ccncc1)Nc1c(Cl)cc(Cl)cc1Cl [Rho Kinase Inhibitor II]
2. O=c1c2ccccc2[nH]c(=S)n1CCN1CCC(=C(c2ccc(F)cc2)c2ccc(F)cc2)CC1 [Diacylglycerol Kinase Inhibitor II]
3. NCCCn1cc(C2=C(c3c[nH]c4ccccc34)C(=O)NC2=O)c2ccccc21 [Bisindolylmaleimide III, Hydrochloride]
4. COc1ccc(OC)c2c(=S)c3ccccc3[nH]c12

Result block:
1.08
0.995
1.06
0.981

---

System: IMR-90
PROTOCOL DETAILS: relative cell viability (ATPlite) vs untreated control (fraction); higher = less toxic
ASSAY CONTEXT: 1 µM; 72 h
Structures can show the parent of a compound that is named as a salt.
Please respond with reported relative cell viability for every item in the list.
One number for each entry.

Some solved entries appear below for comparison.
COc1cc(Nc2ncc3ccn(-c4cccc(CCC#N)c4)c3n2)cc(OC)c1OC [Keratinocyte Differentiation Inducer]: 1.02
O=C1Nc2ccc(Br)cc2/C1=C/c1cc2c([nH]1)CCCC2 [VEGF Receptor 2 Kinase Inhibitor II]: 0.979
COc1ccc(CNC(=O)Nc2ncc([N+](=O)[O-])s2)cc1 [GSK-3b Inhibitor VIII]: 0.978
O=c1c(O)c(-c2ccc(O)c(O)c2)oc2cc(O)c(O)c(O)c12 [Quercetagetin]: 0.88
O=c1cc(N2CCOCC2)oc2c1ccc1ccccc12 [DNA-PK Inhibitor II]: 1

Go through the items and report each one's relative cell viability.
1. CCCOc1ccc(/C=C2/SC(=O)NC2=O)cc1 [PIM1/2 Kinase Inhibitor VI]
2. c1ccc(-c2cnc(Nc3ccc(OCCN4CCCC4)cc3)s2)cc1 [Flt-3 Inhibitor III]
3. OCC(O)CCO/N=C1\C(c2c(O)[nH]c3ccccc23)=Nc2ccccc21 (configuration not stated) [Indirubin Derivative E804]
4. Brc1c(Br)c(Br)c2n[nH]nc2c1Br [Casein Kinase II Inhibitor I]

Result block:
0.916
0.924
0.974
1

Go through the items and report each one's relative cell viability.
1. Fc1ccc(-c2nc3n(c2-c2ccncc2)CCS3)cc1
2. Cc1ccc(S(=O)(=O)/C=C/C#N)cc1

Result block:
1: 0.999; 2: 1.01

Query block: May I ask what relative cell viability has been recorded for NC(N)=NCCNS(=O)(=O)c1cccc2cnccc12 [HA 1004, Dihydrochloride] ?
Result block: 1.01
